Every entry's value here was drawn from patent US20180127503A1.

- measuredTarget: T1, human ROR2 expressed on the cell surface (human, UniProt Q01974 34-943)
- T1 construct: Endogenous ROR2 of human tumour cell lines; also called cell surface ROR2; ROR2 on tumour cell lines
- T1 sequence (Q01974 34-943 limits assumed): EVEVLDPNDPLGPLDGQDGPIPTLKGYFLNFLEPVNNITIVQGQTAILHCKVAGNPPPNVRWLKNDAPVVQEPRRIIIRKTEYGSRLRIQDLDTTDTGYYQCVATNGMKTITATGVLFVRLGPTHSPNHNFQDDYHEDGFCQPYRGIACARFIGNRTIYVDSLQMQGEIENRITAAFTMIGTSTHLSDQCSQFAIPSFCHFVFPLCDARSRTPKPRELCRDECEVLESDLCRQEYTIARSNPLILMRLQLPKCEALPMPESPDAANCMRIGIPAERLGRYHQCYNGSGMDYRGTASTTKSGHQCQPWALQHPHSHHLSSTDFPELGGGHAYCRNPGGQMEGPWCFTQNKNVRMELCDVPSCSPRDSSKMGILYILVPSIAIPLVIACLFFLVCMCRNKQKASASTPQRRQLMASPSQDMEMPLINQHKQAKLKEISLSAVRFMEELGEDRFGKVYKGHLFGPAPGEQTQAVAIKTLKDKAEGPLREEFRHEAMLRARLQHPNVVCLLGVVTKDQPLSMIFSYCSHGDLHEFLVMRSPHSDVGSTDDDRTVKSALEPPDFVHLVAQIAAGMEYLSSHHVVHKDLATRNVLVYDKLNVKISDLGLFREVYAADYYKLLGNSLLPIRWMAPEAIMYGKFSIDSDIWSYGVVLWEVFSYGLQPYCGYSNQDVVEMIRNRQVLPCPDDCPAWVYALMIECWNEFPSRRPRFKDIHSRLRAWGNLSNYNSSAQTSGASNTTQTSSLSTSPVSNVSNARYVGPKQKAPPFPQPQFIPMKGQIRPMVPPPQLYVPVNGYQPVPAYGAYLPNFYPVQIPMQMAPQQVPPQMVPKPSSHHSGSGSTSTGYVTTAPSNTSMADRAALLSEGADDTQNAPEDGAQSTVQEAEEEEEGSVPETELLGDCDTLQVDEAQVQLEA
- testName: flow cytometry, OVCAR3 cells (ovarian CA)
- Design: unit not given here
readoutType: binding intensity

Req: Return the recorded binding intensity value; entry: ROR2-27 full length human IgG1 antibody (antibody, V domains shown, also called clone #27; clone #027 IgG1) VH: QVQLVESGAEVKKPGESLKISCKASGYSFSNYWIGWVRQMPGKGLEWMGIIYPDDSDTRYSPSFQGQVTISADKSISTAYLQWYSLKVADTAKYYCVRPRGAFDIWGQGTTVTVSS VL: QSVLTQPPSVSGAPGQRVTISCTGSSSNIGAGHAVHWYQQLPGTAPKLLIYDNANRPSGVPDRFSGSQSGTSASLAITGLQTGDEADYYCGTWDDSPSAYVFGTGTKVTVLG
Resp: 7
